Multiple publications report IC50 for EED-EZH2 (Homo sapiens (Human)); what follows is a combined list.
ASSAY METRIC: IC50 (nM)

In the examples that follow, each entry is paired with its recorded IC50.
- COMPOUND: "CC(C)S(=O)(=O)N1CC=C(c2cnc(NCc3c(F)ccc4c3CCO4)n3cnnc23)CC1"
  IC50, nM: 8.9
- COMPOUND: "Fc1ccc2c(c1CNc1ncc(-c3cnn(C4CC4)c3)c3nncn13)CCO2"
  IC50, nM: 4.5
- COMPOUND: "Cc1cc(-c2cnc(NCc3cccc4c3CCO4)n3cnnc23)cnc1N1CCN(C)CC1"
  IC50, nM: 18.5
- COMPOUND: "CN(C)CCc1ccc(-c2cnc(NCc3c(F)ccc4c3CCO4)n3cncc23)cn1"
  IC50, nM: 8.7
- COMPOUND: "CN1CCN(c2cc(-c3cnc(NCc4cccc5occc45)n4cnnc34)ccn2)CC1"
  IC50, nM: 31.2
- COMPOUND: "Cc1nn(C)cc1-c1cnc(NCc2c(F)ccc3c2CCO3)n2cnnc12"
  IC50, nM: 5.9
- COMPOUND: "Cc1nn(C)c(C)c1-c1cnc(NCc2c(F)ccc3c2CCO3)n2cnnc12"
  IC50, nM: 6.2
- COMPOUND: "CS(=O)(=O)Nc1ccc(-c2cnc(NCc3c(F)ccc4c3CCO4)n3cnnc23)cc1F"
  IC50, nM: 17.8
- COMPOUND: "Cc1ncccc1-c1cnc(NCc2c(F)ccc3c2CCO3)n2cnc(C(=O)NN)c12"
  IC50, nM: 7
- COMPOUND: "Cc1ncc(-c2cnc(NCc3c(F)ccc4c3CCO4)n3cnnc23)n1C"
  IC50, nM: 67.2

P: Cc1nc(C2CC2)ccc1-c1cnc(NCc2c(F)ccc3c2CCO3)n2cnnc12
Q: CCOc1cc(C)c(-c2cnc(NCc3c(F)ccc4c3CCO4)n3cnnc23)cn1
Prompt: Hello, I am sorting some records. Could you say if P or Q has the smaller IC50 value? Let me know the label of the one you choose.
Completion: Q
(Q: 3.6 nM, P: 5.2 nM)

I: FC(F)c1ccc(-c2cnc(NCc3cccc4c3CCO4)n3cnnc23)cn1
II: CN(C)CC(=O)N1CC=C(c2cnc(NCc3ccco3)n3cnnc23)CC1
III: Cc1cc(-c2cnc(NCc3c(F)ccc4c3CCO4)n3cncc23)ccc1S(C)(=O)=O
IV: CC1(C)CC(c2cnc(NCc3c(F)ccc4c3CCO4)n3cnnc23)CCO1 (centres unmarked)
Prompt: Could you please sort these 4 entries by IC50 from high to low? // rank by listing labels in the order requested
Completion: II, I, III, IV
(II: 318 nM, I: 20.1 nM, III: 10.5 nM, IV: 4.2 nM)

1: Cc1ccc(-c2ncn3c(NCc4c(F)ccc5c4CCO5)ncc(-c4cnc(C)nc4C)c23)cn1
2: Nc1ccc(-c2cnc(NCc3cccc4c3CCO4)n3cnnc23)cn1
Prompt: // compare: 1 vs 2 , metric IC50, want the smaller Please indicate the selected item by its label.
Completion: 1

A: Fc1ccc2c(c1CNc1ncc(-c3ccncc3)c3nncn13)CCO2
B: CC1(C)COC(c2cncc(-c3cnc(NCc4cccc5c4CCO5)n4cnnc34)c2)=N1
C: Cn1nccc1-c1cnc(NCc2c(F)ccc3c2CCO3)n2cnnc12
D: COc1cccc(F)c1CNc1ncc(-c2ccc(CN(C)C)cc2)c2cncn12
Prompt: List these items ordered by IC50, big to small. Form entry: ranked labels (order as requested).
Completion: D, A, B, C

A: OCCc1ccc(-c2cnc(NCc3c(F)ccc4c3CCO4)n3cncc23)cn1
B: Fc1ccc2c(c1CNc1ncc(-c3ccccn3)c3nncn13)CCO2
C: Cc1nc(F)ccc1-c1cnc(NCc2c(F)ccc3c2CCO3)n2cnnc12
D: Cc1nn(C(C)C)cc1-c1cnc(NCc2c(F)ccc3c2CCO3)n2cncc12
Prompt: I would appreciate it if you could sort these 4 compounds by IC50, starting from the smallest number. Use the labels to give the ranking in the order requested.
Completion: C, B, D, A
(C: 4.2 nM, B: 6.1 nM, D: 9.9 nM, A: 21.7 nM)

I: CC1CCCN1c1ccc(-c2cnc(NCc3cccc4c3CCO4)n3cnnc23)cn1 (centres unmarked)
II: Cc1nn(CCO)c(C)c1-c1cnc(NCc2c(F)ccc3c2CCO3)n2cnnc12
Prompt: Would you let me know which has the greater IC50 value, I or II ? Mark your answer with the label of the selected entry.
Completion: I
(I: 26 nM, II: 5.1 nM)

###

pIC50: −log10 of the molar value.
For reference, the following pIC50 results for EED-EZH2 (Homo sapiens (Human)) were taken from various sources.
ASSAY METRIC: pIC50

Look over these answered cases.
- MOLECULE: "CC(=O)N1CCC(c2cnc(NCc3c(F)ccc4c3CCO4)n3cnnc23)CC1"
  TGT: "EED-EZH2 (Homo sapiens (Human))"
  RECORDED VALUE: 8.28
- MOLECULE: "CN1CCN(c2ccc(-c3cnc(NCc4cccc5c4CCO5)n4cnnc34)cn2)CC1"
  TGT: "EED-EZH2 (Homo sapiens (Human))"
  RECORDED VALUE: 7.84
- MOLECULE: "CS(=O)(=O)c1ccc(-c2cnc(NCc3c(F)ccc4c3CCO4)n3cnnc23)cn1"
  TGT: "EED-EZH2 (Homo sapiens (Human))"
  RECORDED VALUE: 7.71
- MOLECULE: "Fc1cc(-c2cnc(NCc3c(F)ccc4c3CCO4)n3cncc23)ccn1"
  TGT: "EED-EZH2 (Homo sapiens (Human))"
  RECORDED VALUE: 7.81
- MOLECULE: "CS(=O)(=O)c1ccc(-c2cnc(NCc3c(F)ccc4c3CCO4)n3cnnc23)cc1"
  TGT: "EED-EZH2 (Homo sapiens (Human))"
  RECORDED VALUE: 7.91

P: CC(C)(C)NC(=O)N1CC=C(c2cnc(NCc3c(F)ccc4c3CCO4)n3cnnc23)CC1
Q: Fc1ccc2c(c1CNc1ncc(C3=CCSCC3)c3nncn13)CCO2
R: CC(F)(F)C(=O)N1CC=C(c2cnc(NCc3ccco3)n3cnnc23)CC1
S: CC1Cc2c(CNc3ncc(-c4ccc(CN(C)C)cc4)c4nncn34)cccc2O1 (centres unmarked)
Prompt: Let's sort these by pIC50, smallest first. Go ahead? Answer with the labels in sequence, matching the requested order.
Completion: S, R, P, Q
(S: 5.70, R: 6.04, P: 7.68, Q: 8.10)
